Biological target: human glucocorticoid receptor-α [GRX] isoform (Homo sapiens)
Construct: host or cells: insect SF21 cells (baculovirus)
Assay: Radioligand binding with human glucocorticoid receptor cytosol ([3H]-dexamethasone competition)
Details: GRX cytosol expressed in insect SF21 cells, [3H]-Dex ~0.9 nM, 4° C. overnight; Ki by Cheng-Prusoff, KL ~[…]; read-out: Ki (nM) GR
readout_label: Ki (nM)

In [3]: df
Out[3]:
                                   molecule                             tested_target  value
0  COc1cccc2c1-c1ccc3c(c1C(C/C=C/CO)O2)C(C)=CC(C)(C)N3 (centres unmarked)  human glucocorticoid receptor-α [GRX] isoform (Homo sapiens)     25
1  C=CCC1Oc2ccc(OC(=O)CCC(=O)N3CCOCC3)c(OC)c2-c2ccc3c(c21)C(C)=CC(C)(C)N3 (centres unmarked)  human glucocorticoid receptor-α [GRX] isoform (Homo sapiens)    1.2
2  COc1c(O)ccc2c1-c1ccc3c(c1[C@H]([C@H]1C=C(CO)CCC1)O2)C(C)=CC(C)(C)N3 (relative stereo)  human glucocorticoid receptor-α [GRX] isoform (Homo sapiens)   0.53
3  C=CCC1Oc2ccc(Cl)c(OC(F)F)c2-c2ccc3c(c21)C(C)=CC(C)(C)N3 (centres unmarked)  human glucocorticoid receptor-α [GRX] isoform (Homo sapiens)    2.4

(1) CC1=CC(C)(C)Nc2ccc3c(c21)C(c1cc(C)cc(C)c1)Oc1ccc(O)c(Cl)c1-3 (centres unmarked)
(2) COc1c(O)ccc2c1-c1ccc3c(c1C(Cc1ccccc1)O2)C(C)=CC(C)(C)N3 (centres unmarked)
Lower value for measured Ki? Options: 1 , 2 Give the chosen item's label as your response. 2

(I) COC(=O)Oc1cccc2c1-c1ccc3c(c1C(c1cc(Cl)cc(Cl)c1)O2)C(C)=CC(C)(C)N3 (centres unmarked)
(II) COc1c(O)ccc2c1-c1ccc3c(c1C(c1cccc(OC(C)=O)c1)O2)C(C)=CC(C)(C)N3 (centres unmarked)
Lower value for measured Ki? Options: I , II Give the chosen item's label as your response. II

###

Target: human glucocorticoid receptor-α [GRX] isoform (Homo sapiens, UniProt P04150)
Construct: host or cells: insect SF21 cells (baculovirus)
Sequence (P04150 whole entry, canonical isoform): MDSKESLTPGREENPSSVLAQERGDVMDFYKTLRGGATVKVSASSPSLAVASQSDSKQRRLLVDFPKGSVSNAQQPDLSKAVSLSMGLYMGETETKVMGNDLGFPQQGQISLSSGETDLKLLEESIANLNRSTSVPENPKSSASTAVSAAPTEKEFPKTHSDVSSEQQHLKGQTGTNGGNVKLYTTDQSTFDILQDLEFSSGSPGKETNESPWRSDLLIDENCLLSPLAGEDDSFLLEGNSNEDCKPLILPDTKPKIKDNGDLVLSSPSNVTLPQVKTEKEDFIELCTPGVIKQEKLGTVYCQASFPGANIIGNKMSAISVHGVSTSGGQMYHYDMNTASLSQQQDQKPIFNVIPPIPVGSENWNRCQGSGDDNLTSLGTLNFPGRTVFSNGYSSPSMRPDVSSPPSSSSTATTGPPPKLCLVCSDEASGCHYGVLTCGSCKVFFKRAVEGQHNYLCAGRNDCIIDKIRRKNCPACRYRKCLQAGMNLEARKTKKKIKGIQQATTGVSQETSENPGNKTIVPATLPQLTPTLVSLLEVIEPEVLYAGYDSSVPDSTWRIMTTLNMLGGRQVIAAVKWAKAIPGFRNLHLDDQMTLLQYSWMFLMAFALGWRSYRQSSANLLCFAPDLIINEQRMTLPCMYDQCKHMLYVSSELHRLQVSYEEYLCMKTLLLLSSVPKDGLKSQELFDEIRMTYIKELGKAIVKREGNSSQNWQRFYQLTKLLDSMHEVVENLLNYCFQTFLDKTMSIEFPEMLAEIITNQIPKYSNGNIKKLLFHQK
Test: Radioligand binding with human glucocorticoid receptor cytosol ([3H]-dexamethasone competition)
Details: GRX cytosol expressed in insect SF21 cells, [3H]-Dex ~0.9 nM, 4° C. overnight; Ki by Cheng-Prusoff, KL ~[…]; read-out: Ki (nM) GR
readout_label: Ki (nM)

>>> df
                                   molecule  readout_label  unit_info  value
0  C=CCCCC1Oc2ccc(O)c(OC)c2-c2ccc3c(c21)C(C)=CC(C)(C)N3 (centres unmarked)             Ki         nM   0.65
1  COc1cccc2c1-c1ccc3c(c1C(C1C=C(COC(C)=O)CCC1)O2)C(C)=CC(C)(C)N3 (centres unmarked)             Ki         nM    2.6
2  COc1cccc2c1-c1ccc3c(c1C(c1ccc(F)cc1)O2)C(C)=CC(C)(C)N3 (centres unmarked)             Ki         nM     13

(1) CCc1cccc2c1-c1ccc3c(c1C(c1cc(Cl)cc(Cl)c1)O2)C(C)=CC(C)(C)N3 (centres unmarked)
(2) COc1c(O)ccc2c1-c1ccc3c(c1/C(=C/c1cc(F)ccc1F)O2)C(C)=CC(C)(C)N3
(3) C=CCC1Oc2cccc(C#N)c2-c2ccc3c(c21)C(C)=CC(C)(C)N3 (centres unmarked)
(4) CC1=CC(C)(C)Nc2ccc3c(c21)C(C(C)C)Oc1ccc(O)c(Cl)c1-3 (centres unmarked)
(5) C#CCC1Oc2ccc(O)c(OC)c2-c2ccc3c(c21)C(C)=CC(C)(C)N3 (centres unmarked)
Please list these molecules in decreasing order of Ki. Reply format: the labels, ordered as requested. 1, 3, 2, 4, 5

###

Target: human progesterone receptor-A [PRA] isoform (Homo sapiens, UniProt P06401)
Construct: host or cells: insect SF21 cells (baculovirus)
Sequence (P06401 1-769 isoform P06401-2): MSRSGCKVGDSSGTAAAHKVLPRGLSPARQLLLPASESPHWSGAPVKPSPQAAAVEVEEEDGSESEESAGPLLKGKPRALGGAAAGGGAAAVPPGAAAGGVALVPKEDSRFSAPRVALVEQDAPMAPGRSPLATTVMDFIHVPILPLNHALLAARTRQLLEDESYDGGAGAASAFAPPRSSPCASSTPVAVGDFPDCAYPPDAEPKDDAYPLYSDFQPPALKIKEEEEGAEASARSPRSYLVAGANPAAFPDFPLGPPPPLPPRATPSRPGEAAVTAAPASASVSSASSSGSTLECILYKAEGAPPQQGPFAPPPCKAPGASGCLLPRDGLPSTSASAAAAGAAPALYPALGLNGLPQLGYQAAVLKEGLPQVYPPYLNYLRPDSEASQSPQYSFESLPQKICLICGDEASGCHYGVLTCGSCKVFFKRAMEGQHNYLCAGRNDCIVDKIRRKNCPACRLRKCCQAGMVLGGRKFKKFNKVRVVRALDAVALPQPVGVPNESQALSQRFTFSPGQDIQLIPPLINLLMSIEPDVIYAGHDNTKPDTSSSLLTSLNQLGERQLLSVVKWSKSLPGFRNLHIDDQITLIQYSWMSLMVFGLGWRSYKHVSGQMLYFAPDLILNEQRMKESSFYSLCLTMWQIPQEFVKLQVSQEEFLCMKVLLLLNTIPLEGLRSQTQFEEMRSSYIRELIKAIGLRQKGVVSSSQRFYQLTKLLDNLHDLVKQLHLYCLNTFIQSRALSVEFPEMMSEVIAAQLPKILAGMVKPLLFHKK
Assay: Radioligand binding with human progesterone receptor cytosol ([3H]-progesterone competition)
Details: PRA cytosol expressed in insect SF21 cells, [3H]Prog ~0.8 nM, 4° C. overnight; Ki by Cheng-Prusoff, KL ~4.5 nM; read-out: Ki (nM) PR
readout_label: Ki (nM)

In [3]: df
Out[3]:
                                   molecule  readout_label  value
0  C=CCC1Oc2ccc(OC(=O)CCCNC(C)=O)c(OC)c2-c2ccc3c(c21)C(C)=CC(C)(C)N3 (racemic)             Ki   76.7

(P) C#CCC1Oc2ccc(O)c(OC)c2-c2ccc3c(c21)C(C)=CC(C)(C)N3 (stereo not shown)
(Q) COc1c(O)ccc2c1-c1ccc3c(c1C(c1nccs1)O2)C(C)=CC(C)(C)N3 (stereo not shown)
So which one has the bigger Ki here, P or Q ? Give the chosen item's label as your response. Q
(Q: 14100 nM, P: 102 nM)

###

Molecular target: human progesterone receptor-A [PRA] isoform (Homo sapiens)
Construct: host or cells: insect SF21 cells (baculovirus)
Assay: Radioligand binding with human progesterone receptor cytosol ([3H]-progesterone competition)
Conditions: PRA cytosol expressed in insect SF21 cells, [3H]Prog ~0.8 nM, 4° C. overnight; Ki by Cheng-Prusoff, KL ~4.5 nM; read-out: Ki (nM) PR
readout_label: Ki (nM)

>>> print(df.to_string())
                                   molecule  unit_info  value
0  C=CCC1Oc2cccc(OC)c2-c2ccc3c(c21)C(C)=CC(CC)(CC)N3 (stereo not shown)         nM   9140
1  CSCOc1cccc(C2Oc3cccc(OC(F)F)c3-c3ccc4c(c32)C(C)=CC(C)(C)N4)c1 (stereo not shown)         nM   2120

(P) COc1c(O)ccc2c1-c1ccc3c(c1C(c1ccccc1C)O2)C(C)=CC(C)(C)N3 (racemic)
(Q) CC1=CC(C)(C)Nc2ccc3c(c21)C(=Cc1ccccn1)Oc1ccc(O)c(Cl)c1-3
(R) C=CCC1Oc2ccc(OC(=O)CCCN(C)C)c(OC)c2-c2ccc3c(c21)C(C)=CC(C)(C)N3 (stereo not shown)
(S) COc1c(O)ccc2c1-c1ccc3c(c1C(Cc1ccccc1F)O2)C(C)=CC(C)(C)N3 (stereo not shown)
(T) CCOC(=N)C1Oc2cccc(OC)c2-c2ccc3c(c21)C(C)=CC(C)(C)N3 (stereo not shown)
Provide the items ranked by increasing Ki. Reply format: the labels, ordered as requested. Q, R, S, P, T

(P) C=CC1Oc2cccc(OC)c2-c2ccc3c(c21)C(C)=CC(C)(C)N3 (stereo not shown)
(Q) COc1c(O)ccc2c1-c1ccc3c(c1/C(=C/c1cc(F)ccc1F)O2)C(C)=CC(C)(C)N3
So which one has the bigger Ki here, P or Q ? Give the chosen item's label as your response. P
(P: 3050 nM, Q: 83.9 nM)

###

Biological target: human progesterone receptor-A [PRA] isoform (Homo sapiens)
Construct: host or cells: insect SF21 cells (baculovirus)
Sequence (P06401 1-769 isoform P06401-2): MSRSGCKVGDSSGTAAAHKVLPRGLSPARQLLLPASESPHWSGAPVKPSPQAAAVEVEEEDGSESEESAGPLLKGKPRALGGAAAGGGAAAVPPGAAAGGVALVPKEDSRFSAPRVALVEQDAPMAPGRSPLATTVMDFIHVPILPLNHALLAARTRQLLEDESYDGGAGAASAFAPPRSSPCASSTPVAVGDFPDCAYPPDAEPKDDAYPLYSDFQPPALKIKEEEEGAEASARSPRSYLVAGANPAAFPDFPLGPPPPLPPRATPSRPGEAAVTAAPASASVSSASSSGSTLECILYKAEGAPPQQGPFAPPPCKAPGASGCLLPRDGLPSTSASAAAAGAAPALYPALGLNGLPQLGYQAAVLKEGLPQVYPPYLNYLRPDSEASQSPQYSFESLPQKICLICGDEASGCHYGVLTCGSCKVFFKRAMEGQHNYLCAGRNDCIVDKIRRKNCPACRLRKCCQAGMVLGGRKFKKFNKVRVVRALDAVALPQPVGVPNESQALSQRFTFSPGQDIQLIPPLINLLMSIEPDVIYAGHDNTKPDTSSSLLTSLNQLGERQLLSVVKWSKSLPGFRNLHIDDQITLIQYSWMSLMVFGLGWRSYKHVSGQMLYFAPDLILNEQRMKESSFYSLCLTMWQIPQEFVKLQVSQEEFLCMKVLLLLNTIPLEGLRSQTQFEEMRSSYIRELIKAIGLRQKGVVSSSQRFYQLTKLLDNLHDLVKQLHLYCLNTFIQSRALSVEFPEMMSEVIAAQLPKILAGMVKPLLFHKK
Assay: Radioligand binding with human progesterone receptor cytosol ([3H]-progesterone competition)
Settings: PRA cytosol expressed in insect SF21 cells, [3H]Prog ~0.8 nM, 4° C. overnight; Ki by Cheng-Prusoff, KL ~4.5 nM; read-out: Ki (nM) PR
readout_label: Ki (nM)

In [3]: df
Out[3]:
                                   molecule  readout_label  value
0  COc1cccc2c1-c1ccc3c(c1C(c1cccc(C(F)(F)F)c1)O2)C(C)=CC(C)(C)N3 (centres unmarked)             Ki   4020

(P) COc1cccc2c1-c1ccc3c(c1[C@H]([C@@H]1C=CCC1)O2)C(C)=CC(C)(C)N3
(Q) C=CCC1Oc2ccc(OC(=O)CNC(N)=O)c(OC)c2-c2ccc3c(c21)C(C)=CC(C)(C)N3 (racemic)
(R) CNc1cccc2c1-c1ccc3c(c1C(c1cc(Cl)cc(Cl)c1)O2)C(C)=CC(C)(C)N3 (centres unmarked)
Please list these molecules in decreasing order of Ki. Reply format: the labels, ordered as requested. R, P, Q
